Please provide measured pIC50 for the entries that follow.
testSystem: Cyclin-dependent kinase 1/cyclin B (Homo sapiens, UniProt P06493)
test: Inhibition of human cyclin-dependent kinase 1-cyclin B
Please keep in mind that pIC50 is minus log10 of the molar concentration; only the number is needed.

Exercise: Query pIC50 on Cyclin-dependent kinase 1/cyclin B (Homo sapiens, UniProt P06493) for NC1=NC(=O)/C(=C2\CCNC(=O)c3[nH]c(Br)cc32)N1 [HYMENIALDISINE]
Key: 7.66

Exercise: # repeat for O=Nc1c(-c2c(O)[nH]c3ccc(I)cc23)[nH]c2ccccc12
Key: 7.60

Exercise: # repeat for O=C1Cc2c([nH]c3ccc(Br)cc23)-c2ncccc2N1 [AZAKENPAULLONE]
Key: 5.70

Exercise: # repeat for O=C1Cc2c([nH]c3ccc(Br)cc23)-c2cccnc2N1
Key: 5.08

* * *

testSystem: Glycogen synthase kinase-3 beta (Homo sapiens, UniProt P49841)
Sequence (P49841 whole entry): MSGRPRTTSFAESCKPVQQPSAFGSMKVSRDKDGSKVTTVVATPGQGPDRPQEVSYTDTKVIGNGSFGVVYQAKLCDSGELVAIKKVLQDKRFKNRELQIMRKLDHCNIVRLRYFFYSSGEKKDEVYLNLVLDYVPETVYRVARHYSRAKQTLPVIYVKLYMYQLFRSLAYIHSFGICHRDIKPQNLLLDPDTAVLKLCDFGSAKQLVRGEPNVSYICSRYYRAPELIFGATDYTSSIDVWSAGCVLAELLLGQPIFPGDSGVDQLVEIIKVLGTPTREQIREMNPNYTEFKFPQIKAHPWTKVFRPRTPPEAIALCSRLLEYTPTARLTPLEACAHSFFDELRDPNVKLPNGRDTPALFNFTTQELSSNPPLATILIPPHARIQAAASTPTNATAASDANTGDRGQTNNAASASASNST
resultType: IC50 (µM)
Report only the number, with the unit µM understood.

Exercise: Could you share which IC50 value was measured for O=C1Cc2c([nH]c3ccc(Br)cc23)-c2cccnc2N1 ?
Key: 6

* * *

testSystem: Cyclin-dependent kinase 5/CDK5 activator 1 (Homo sapiens, UniProt Q00535)
Sequence (Q00535 whole entry): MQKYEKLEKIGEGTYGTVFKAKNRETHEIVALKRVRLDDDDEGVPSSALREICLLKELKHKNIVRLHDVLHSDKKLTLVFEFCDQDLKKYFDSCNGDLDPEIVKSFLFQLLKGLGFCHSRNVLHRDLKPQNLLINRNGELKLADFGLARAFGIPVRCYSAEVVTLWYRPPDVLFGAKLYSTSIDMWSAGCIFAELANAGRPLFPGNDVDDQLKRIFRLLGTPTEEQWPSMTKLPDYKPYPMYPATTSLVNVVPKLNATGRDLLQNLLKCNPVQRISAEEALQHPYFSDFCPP
Sequence (Q15078 whole entry, further chain): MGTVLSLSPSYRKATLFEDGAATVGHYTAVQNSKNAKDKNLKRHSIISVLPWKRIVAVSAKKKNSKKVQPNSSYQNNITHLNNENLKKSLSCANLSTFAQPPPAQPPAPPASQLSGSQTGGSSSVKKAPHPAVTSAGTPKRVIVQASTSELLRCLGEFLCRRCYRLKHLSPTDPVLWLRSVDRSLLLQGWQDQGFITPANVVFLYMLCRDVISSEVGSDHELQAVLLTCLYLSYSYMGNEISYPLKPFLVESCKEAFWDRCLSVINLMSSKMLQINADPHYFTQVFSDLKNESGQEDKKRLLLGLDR
test: Inhibition of human Cyclin-dependent kinase 5-p35nck5a
resultType: pIC50
Please keep in mind that pIC50 is minus log10 of the molar concentration; only the number is needed.

Exercise: Could you share which pIC50 value was measured for O=Nc1c(-c2c(O)[nH]c3ccc(I)cc23)[nH]c2ccccc12 ?
Key: 7.70

Exercise: # repeat for O=C1Cc2c([nH]c3ccc(Br)cc23)-c2cccnc2N1
Key: 4.92

Exercise: # repeat for NC1=NC(=O)/C(=C2\CCNC(=O)c3[nH]c(Br)cc32)N1
Key: 7.55
